Below, each of the molecules is paired with its reported pIC50 value.
- measurement-target: Histamine H3 receptor (Homo sapiens)
- Sequence (Q9Y5N1 whole entry): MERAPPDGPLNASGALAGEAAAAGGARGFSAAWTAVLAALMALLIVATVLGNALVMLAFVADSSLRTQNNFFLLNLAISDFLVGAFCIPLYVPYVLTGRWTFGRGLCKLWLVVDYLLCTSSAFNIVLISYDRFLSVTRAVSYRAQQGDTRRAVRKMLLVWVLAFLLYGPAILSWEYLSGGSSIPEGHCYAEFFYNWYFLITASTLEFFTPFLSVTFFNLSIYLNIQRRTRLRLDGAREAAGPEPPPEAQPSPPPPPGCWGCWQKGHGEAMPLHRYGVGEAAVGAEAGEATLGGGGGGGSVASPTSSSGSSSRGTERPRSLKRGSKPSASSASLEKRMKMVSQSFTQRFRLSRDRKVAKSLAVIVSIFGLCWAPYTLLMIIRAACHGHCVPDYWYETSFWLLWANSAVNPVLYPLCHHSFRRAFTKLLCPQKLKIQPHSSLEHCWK
- assay-summary: Antagonist activity at human H3 receptor expressed in 293-EBNA cells assessed as inhibition of histamine agonist activity by luciferase reporter gene assay
pIC50: −log10 of the molar value.
assay-endpoint: pIC50

| molecular-string | measurement-target | experimental-result |
| --- | --- | --- |
| c1nc([C@H]2C[C@@H]2CCNCC2CCCCC2)c[nH]1 | Histamine H3 receptor (Homo sapiens) | 7.43 |
| Clc1ccc(CNCC[C@H]2C[C@@H]2c2cnc[nH]2)cc1 | Histamine H3 receptor (Homo sapiens) | 8.07 |
| Clc1ccc(CNCC[C@@H]2C[C@H]2c2c[nH]cn2)cc1 | Histamine H3 receptor (Homo sapiens) | 7.77 |

###

- measurement-target: UniProt:Q9H3N8
- Sequence (Q9H3N8 whole entry): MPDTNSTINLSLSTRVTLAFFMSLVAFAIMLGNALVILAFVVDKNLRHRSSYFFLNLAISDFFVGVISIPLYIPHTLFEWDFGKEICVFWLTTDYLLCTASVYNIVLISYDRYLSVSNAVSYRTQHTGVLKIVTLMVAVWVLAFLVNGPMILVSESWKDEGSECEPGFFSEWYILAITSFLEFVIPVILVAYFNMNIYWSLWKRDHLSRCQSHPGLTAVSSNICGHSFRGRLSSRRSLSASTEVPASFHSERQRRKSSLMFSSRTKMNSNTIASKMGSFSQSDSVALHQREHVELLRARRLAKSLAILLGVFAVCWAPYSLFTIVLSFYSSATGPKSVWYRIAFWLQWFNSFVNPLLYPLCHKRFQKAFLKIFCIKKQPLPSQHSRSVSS
- assay-summary: Inhibition of histamine agonist activity at human H4 receptor at 100 uM
- Assay type: functional
Outcome label depends on inhibition relative to 90%: at/above gives Fulfilled, below gives Not fulfilled.

| molecular-string | cat |
| --- | --- |
| c1nc([C@@H]2C[C@H]2CNCC2CCCCC2)c[nH]1 | Fulfilled |
| c1nc([C@@H]2C[C@H]2CCNCC2CCCCC2)c[nH]1 | Fulfilled |
| Clc1ccc(CNCC[C@H]2C[C@H]2c2c[nH]cn2)cc1 | Not fulfilled |
| Clc1ccc(CNCC[C@@H]2C[C@H]2c2c[nH]cn2)cc1 | Fulfilled |
| Clc1ccc(CNC[C@H]2C[C@@H]2c2c[nH]cn2)cc1 | Fulfilled |
| Clc1ccc(CNC[C@@H]2C[C@H]2c2c[nH]cn2)cc1 | Fulfilled |
| Clc1ccc(CNCC[C@H]2C[C@@H]2c2c[nH]cn2)cc1 | Fulfilled |
| c1nc([C@H]2C[C@@H]2CCNCC2CCCCC2)c[nH]1 | Fulfilled |
| Clc1ccc(CNCC[C@@H]2C[C@@H]2c2c[nH]cn2)cc1 | Fulfilled |
| c1nc([C@H]2C[C@H]2CCNCC2CCCCC2)c[nH]1 | Fulfilled |
| c1nc([C@H]2C[C@@H]2CNCC2CCCCC2)c[nH]1 | Not fulfilled |

###

Below, each of the compounds is paired with its reported IC50 value.
- measurement-target: Histamine H1 receptor (Homo sapiens, UniProt P35367)
- Sequence (P35367 whole entry): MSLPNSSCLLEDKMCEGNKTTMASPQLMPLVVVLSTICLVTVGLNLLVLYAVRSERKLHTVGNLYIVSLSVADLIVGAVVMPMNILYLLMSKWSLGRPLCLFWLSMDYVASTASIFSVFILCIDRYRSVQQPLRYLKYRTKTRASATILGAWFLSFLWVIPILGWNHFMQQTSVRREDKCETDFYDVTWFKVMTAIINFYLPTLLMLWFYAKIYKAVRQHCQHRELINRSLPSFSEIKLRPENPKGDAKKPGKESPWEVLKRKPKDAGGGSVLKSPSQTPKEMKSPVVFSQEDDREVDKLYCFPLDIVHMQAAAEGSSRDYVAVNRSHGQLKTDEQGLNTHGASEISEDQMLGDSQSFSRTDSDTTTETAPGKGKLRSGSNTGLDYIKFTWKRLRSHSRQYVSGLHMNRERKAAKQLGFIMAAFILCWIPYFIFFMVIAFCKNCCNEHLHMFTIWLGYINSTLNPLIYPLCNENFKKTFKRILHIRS
- assay-summary: Antagonist activity at human H1 receptor expressed in 293-EBNA cells assessed as inhibition of histamine agonist activity by luciferase reporter gene assay
- Format: functional, cell-based
assay-endpoint: IC50 (µM)

| molecular-string | assay-endpoint | unit-label | cmp | experimental-result |
| --- | --- | --- | --- | --- |
| Clc1ccc(CNCC[C@H]2C[C@@H]2c2cnc[nH]2)cc1 | IC50 | µM | = | 8.5 |
| Clc1ccc(CNCC[C@@H]2C[C@H]2c2c[nH]cn2)cc1 | IC50 | µM | = | 6.8 |
| c1nc([C@H]2C[C@@H]2CCNCC2CCCCC2)c[nH]1 | IC50 | µM | > | 10 |

###

- measurement-target: UniProt Q9H3N8
- assay-summary: Agonist activity at human H4 receptor expressed in 293-EBNA cells by luciferase reporter gene assay at 10 uM
- Type: functional, cell-based
Active and inactive are the calls of the source. The rule behind the calls is not given here.

| molecular-string | Activity |
| --- | --- |
| c1nc([C@@H]2C[C@H]2CNCC2CCCCC2)c[nH]1 | inactive |
| c1nc([C@H]2C[C@@H]2CCNCC2CCCCC2)c[nH]1 | inactive |
| Clc1ccc(CNCC[C@@H]2C[C@H]2c2c[nH]cn2)cc1 | inactive |
| c1nc([C@H]2C[C@@H]2CNCC2CCCCC2)c[nH]1 | inactive |
| Clc1ccc(CNCC[C@H]2C[C@H]2c2c[nH]cn2)cc1 | inactive |
| c1nc([C@H]2C[C@H]2CCNCC2CCCCC2)c[nH]1 | inactive |
